# Tested on: mechanical nociceptive threshold
# assay text: Epinephrine-induced hyperalgesia in gonad-intact and gonadectomized male and female rats (Example 2)
# condition details: intact female rats; inhibitor 1 μg, epinephrine 100 ng intradermal
assay metric: effect on epinephrine-induced hyperalgesia

>>> endpoint_result("COc1cccc(-c2cc(=O)c3ccccc3o2)c1N")
"attenuated"
>>> endpoint_result("N#CC(=C(/N)Sc1ccccc1N)/C(C#N)=C(\\N)Sc1ccccc1N")
"attenuated"

Source: patent US20030008807A1
